system: HIV strain NL4.3 carrying a gene encoding the green fluorescent protein (NL4.3-GFP); assay: microbe, parasite or virus in culture; settings: Human immunodeficiency virus 1, SUP-T1, 45 h, read-out: Activity (EC50)
pEC50: −log10 of the molar value.

{"columns": ["Compound", "pEC50"],
 "data": [
  ["CC(C)OC(=O)[C@H](C)N[P@](=O)(CO[C@H](C)Cn1cnc2c(N)ncnc21)Oc1ccccc1 [TAF, tenofovir alafenamide]", 7.46]
]}
